# System: PABPC1 PABC
# Assay type: binding, human
# CONDITION_INFO: DMS-BM library, bait PABPC1 PABC, prey ATXN2, peptide KSTLNPNAKEFNPRSF; F = wild type, row aa = residue at this position
Kindly return 1 if reported DMS-derived PSSM value, position F16 is no lower than 0.02; return 0 if it is lower.

SEQ	TARGET	ANSWER_LABEL
KSTLNPNAKEFNPRSF F16L (KSTLNPNAKEFNPRSL)	PABPC1 PABC	1
KSTLNPNAKEFNPRSF F16V (KSTLNPNAKEFNPRSV)	PABPC1 PABC	1
KSTLNPNAKEFNPRSF F16W (KSTLNPNAKEFNPRSW)	PABPC1 PABC	0
KSTLNPNAKEFNPRSF F16P (KSTLNPNAKEFNPRSP)	PABPC1 PABC	0

Continue with the next sequence.
Lookup: Determine whether this sequence has DMS-derived PSSM value, position F16 no lower than 0.02: KSTLNPNAKEFNPRSF F16E (KSTLNPNAKEFNPRSE)
Found: 0

---

# System: G3BP1 NFT2
# Assay type: binding, human
# CONDITION_INFO: library DMS-CoV; bait G3BP1 NFT2; prey N; peptide APRITFGGPSDSTGSN; listed as aa = residue placed at this position; column sums to 1
Would you please tag the item criterion met when its DMS PSSM value, R (position 3) is 0.02 or above, and criterion not met when it is below?

SEQ	ANSWER_LABEL
APRITFGGPSDSTGSN R3H (APHITFGGPSDSTGSN)	criterion not met
APRITFGGPSDSTGSN R3N (APNITFGGPSDSTGSN)	criterion not met
APRITFGGPSDSTGSN R3T (APTITFGGPSDSTGSN)	criterion not met
APRITFGGPSDSTGSN R3P (APPITFGGPSDSTGSN)	criterion met
APRITFGGPSDSTGSN R3I (APIITFGGPSDSTGSN)	criterion met

Lookup: Hi, just wondering whether APRITFGGPSDSTGSN R3G (APGITFGGPSDSTGSN) shows DMS PSSM value, R (position 3) of 0.02 or higher.
Found: criterion met

Lookup: Please do the same for APRITFGGPSDSTGSN R3L (APLITFGGPSDSTGSN) as well.
Found: criterion met

Lookup: Also `APRITFGGPSDSTGSN` ?
Found: criterion not met

---

So I've got a bunch of substances here, and I need their DMS-derived PSSM value (averaged), position F14 values.
# Test system: PABPC1 PABC
# Type: binding, human
# CONDITION_INFO: DMS-BM library, bait PABPC1 PABC, prey ATXN2, TLNPNAKEFNPRSF(averaged) over the two overlapping peptides; F = wild type, row aa = residue at this position

The cases that follow already have their DMS-derived PSSM value (averaged), position F14 on record.
SUBSTANCE	MEAS_VALUE
TLNPNAKEFNPRSF(averaged) F14P (TLNPNAKEFNPRSP)	0.03538
TLNPNAKEFNPRSF	0.06062
TLNPNAKEFNPRSF(averaged) F14V (TLNPNAKEFNPRSV)	0.12

Please turn your attention to the following entry.
Lookup: Any idea what DMS-derived PSSM value (averaged), position F14 was measured for TLNPNAKEFNPRSF(averaged) F14E (TLNPNAKEFNPRSE) ?
Found: 0.01777

---

# System: G3BP1 NFT2
# Assay type: binding, human
# CONDITION_INFO: library DMS-CoV; bait G3BP1 NFT2; prey N; peptide APRITFGGPSDSTGSN; listed as aa = residue placed at this position; column sums to 1
I'd be grateful if you could share measured DMS PSSM value, I (position 4) for these entries.
Numbers only.

Please supply DMS PSSM value, I (position 4) for each of the following items, keeping them in order.
1. APRITFGGPSDSTGSN I4Q (APRQTFGGPSDSTGSN)
2. APRITFGGPSDSTGSN I4N (APRNTFGGPSDSTGSN)
3. APRITFGGPSDSTGSN I4G (APRGTFGGPSDSTGSN)
4. APRITFGGPSDSTGSN I4M (APRMTFGGPSDSTGSN)
5. APRITFGGPSDSTGSN I4Y (APRYTFGGPSDSTGSN)

Found:
0
0
0
0
0

---

I'd appreciate it if you could supply DMS-derived PSSM value, position R12 values for the items below.
# Test system: PABPC1 PABC
# Type: binding, human
# CONDITION_INFO: DMS-BM library, bait PABPC1 PABC, prey ATXN2, peptide TLNPNAKEFNPRSFSQ; R = wild type, row aa = residue at this position

Some sequences with recorded DMS-derived PSSM value, position R12:
SEQ	DMS-derived PSSM value, position R12
TLNPNAKEFNPRSFSQ R12T (TLNPNAKEFNPTSFSQ)	0.06242
TLNPNAKEFNPRSFSQ R12P (TLNPNAKEFNPPSFSQ)	0.005288
TLNPNAKEFNPRSFSQ R12Y (TLNPNAKEFNPYSFSQ)	0.05186
TLNPNAKEFNPRSFSQ R12L (TLNPNAKEFNPLSFSQ)	0.01731
TLNPNAKEFNPRSFSQ R12E (TLNPNAKEFNPESFSQ)	0.01629

Lookup: What value of DMS-derived PSSM value, position R12 has been recorded for this entry: TLNPNAKEFNPRSFSQ R12Q (TLNPNAKEFNPQSFSQ)
Found: 0.0158

---

# TARGET: NSP9 (Severe acute respiratory syndrome coronavirus 2)
# PROTOCOL: biochemical
# Format: binding, SARS‐CoV‐2
Please provide measured Kd for the entries that follow.
Enter the number, and then the unit.

The following substances have reported results that may help.
SUBSTANCE	Kd
Ac-QGAWLPAPEPWEPLLD-NH2 [NOTCH4 G1611P]	410 µM
Ac-QGSWLGAPEPWEPLLD-NH2 [NOTCH4 A1608S]	216 µM
Ac-QGAWLGIPEPWEPLLD-NH2 [NOTCH4 A1612I]	50 µM
Ac-QGAWLDAPEPWEPLLD-NH2 [NOTCH4 G1611D]	160 µM
Ac-QGVWLGAPEPWEPLLD-NH2 [NOTCH4 A1608V]	16 µM
Ac-QGAWLGAPEPWEPLLD-NH2 [NOTCH4 wt]	72 µM
Ac-QGVWLGAVEPWEPLLD-NH2 [NOTCH4 A1608V P1613V]	5.9 µM
Ac-QGAWLGAPEPWFPLLD-NH2 [NOTCH4 E1617F]	35 µM

Provide each entry's Kd from the list below.
1. Ac-QGAWLGAVEPWEPLLD-NH2 [NOTCH4 P1613V]
2. Ac-QGAWLGAPEPYEPLLD-NH2 [NOTCH4 W1616Y]
3. Ac-QGAWLGAPEYWEPLLD-NH2 [NOTCH4 P1615Y]

Found:
33 µM
57 µM
51 µM

---

Please provide measured pKd for the entries that follow.
# TARGET: NSP3 ADRP (Severe acute respiratory syndrome coronavirus 2, UniProt P0DTC1)
# PROTOCOL: biochemical
# Assay type: binding, SARS‐CoV‐2
Answers are plain numbers, as −log10 of the molar value.

For every item in the list below, what is its measured pKd?
1. Ac-STYLHPLSELLTIPLD-NH2 [MBOAT1 G28T]
2. Ac-STALHPLSELLGIPLDY-NH2 [MBOAT1 Y19A]
3. Ac-STYLHPLSELFGIPLD-NH2 [MBOAT1 L27F]
4. Ac-STYLHPLSELLGMPLD-NH2 [MBOAT1 I29M]
5. Ac-STYLHPLSELLGIPFD-NH2 [MBOAT1 L31F]
6. Ac-STYIHPLSELLGIPLD-NH2 [MBOAT1 L20I]

Found:
[3.98, 3.79, 4.09, 4.06, 4.03, 3.82]

---

# System: PABPC1 PABC
# Assay type: binding, human
# CONDITION_INFO: DMS-BM library, bait PABPC1 PABC, prey ATXN2, peptide TLNPNAKEFNPRSFSQ; L = wild type, row aa = residue at this position
MEASURED_METRIC: DMS-derived PSSM value, position L2

SEQ	TARGET	DMS-derived PSSM value, position L2
TLNPNAKEFNPRSFSQ L2R (TRNPNAKEFNPRSFSQ)	PABPC1 PABC	0

Kindly give each listed record's DMS-derived PSSM value, position L2.
1. TLNPNAKEFNPRSFSQ L2M (TMNPNAKEFNPRSFSQ)
2. TLNPNAKEFNPRSFSQ L2Q (TQNPNAKEFNPRSFSQ)
3. TLNPNAKEFNPRSFSQ L2W (TWNPNAKEFNPRSFSQ)
4. TLNPNAKEFNPRSFSQ
5. TLNPNAKEFNPRSFSQ L2V (TVNPNAKEFNPRSFSQ)
6. TLNPNAKEFNPRSFSQ L2Y (TYNPNAKEFNPRSFSQ)
7. TLNPNAKEFNPRSFSQ L2F (TFNPNAKEFNPRSFSQ)

Found:
1. 0.1261
2. 0
3. 0.1455
4. 0.3849
5. 0
6. 0.1104
7. 0.1032

Ref: paper PMC12102759
